The reported measurements were obtained from PubChem BioAssay (NCI).

# System: OVCAR-3 ovarian
# Protocol Summary: NCI-60 one-dose screen, 48 h (100 = growth as untreated, 0 = no growth, -100 = all killed)
# Condition Description: 10 µM
About 83,000 compounds went through this panel and 20% of them were active in at least one assay; those are over-represented in the sample as a whole. Activity calls are given as the source filed them. Rule for the calls: active = growth percent below 10; inactive = the rest.
Overview of reported growth across a group of compounds:

// known answers, use as guide
• C=CCn1c(SCC(=O)Nc2ccc(C(=O)/C=C/c3ccccc3)cc2)nnc1-c1c[nH]c2ccccc12 = 41.4% (inactive)
• O=C(Nc1nc2ccc([N+](=O)[O-])cc2s1)Nc1ccccc1I = 14.4% (inactive)
• Cc1cc(=O)oc2cc(OCCCCOc3ccc(/C=C/C(=O)Nc4ccccc4[N+](=O)[O-])cc3)ccc12 = 128% (inactive)
• O=C1NC(=NC23CC4CC(CC(C4)C2)C3)N/C1=C\c1ccc2ncoc2c1 = 24.1% (inactive)
• CC1(C)CC[C@]2(C(=O)O)CC[C@]3(C)C(=CC[C@@H]4[C@@]5(C)C/C(=C/c6ccncc6)[C@H](O)C(C)(C)[C@@H]5CC[C@]43C)[C@@H]2C1 = 40.9% (inactive)

Dear colleague, I am looking for the recorded growth of the following compound: O=c1[nH]c2ccc(Cl)cc2cc1CSc1ccc(Nc2nccc(-c3ccc4ccccc4c3)n2)cc1
-1.45% (active)

Field request: growth | item: CCCn1c(=O)c2[nH]c(-c3ccc(OCc4nc5ccc(C(F)(F)F)cc5[nH]4)cc3)nc2n(CCC)c1=O
52.5% (inactive)

Record request: growth value, item O=C(Nc1ccc(I)cc1)Nc1nc2ccc([N+](=O)[O-])cc2s1
-92% (active)

###

Measured growth of individual entries
# Tested on: HT29 colon
# Protocol Summary: NCI-60 one-dose screen, 48 h (100 = growth as untreated, 0 = no growth, -100 = all killed)
# Condition Description: 10 µM
The panel holds about 83,000 compounds, 20% with a hit somewhere; the sample as a whole holds those more often.
Give the value, in units of %, as a plain number.

Illustrative cases are given below, each with its answer.
• O=C(Nc1cccc(-c2cn(-c3ccc4oc(=O)ccc4c3)nn2)c1)Nc1cc(C(F)(F)F)cc(C(F)(F)F)c1 = 44.9
• Cc1ccc(CSc2nc(-c3ccc(F)cc3)c(C#N)c(=O)[nH]2)cc1 = 89.3
• CONC[C@]1(C)C=C2C(=O)[C@](C)(O)C3(CC3)C(C)=C2[C@H]1O = -12
• CC(C)CCSc1nc(NC2CC2)c(C#N)c(-c2ccc(C(C)C)cc2)n1 = 108

Which growth is listed for COC(=O)CC1CC1C1Cc2c(nc(N(C)S(C)(=O)=O)nc2C(C)C)-c2ccc(F)cc21 (centres undefined) ?
66.9

Can you share its growth? I mean this compound: O=C(c1ccc(O)cc1)C1[C@H](c2ccccc2Br)[C@@H](c2ccccc2)NC12C(=O)Nc1ccc(Cl)cc12 (some centres undefined)
-30.4

Query (compound): Cc1ccc(NCC(=O)Nn2c(COc3ccccc3)nc3ccccc3c2=O)cc1 ; field requested: growth
92.4

Quick one: growth for N#Cc1ccc(-c2nn(-c3ccc(C(=O)O)cc3)cc2CNc2ccc(Oc3ccccc3)cc2)cc1 ?
34.4

Which value of growth has been reported for CN1CCN(c2ccc(Nc3nc(N4CCN(S(=O)(=O)c5ccc(F)cc5)CC4)c4sccc4n3)cc2)CC1 in the records?
-63.1

Which growth is listed for O=C1Nc2ccc(F)cc2/C1=C/c1cccc(OCc2ccccc2)c1 ?
20.6

Param item = COc1ccccc1[C@H]1C(C(=O)c2ccc(O)cc2)C2(N[C@@H]1c1ccccc1)C(=O)Nc1ccc(Br)cc12 (some centres undefined) ; retrieve measured growth.
-9.98

Which measured growth value corresponds to COc1ccc(C(=O)Nc2ccc(-c3ccc4c(c3)NC(=O)/C4=C\c3ccc[nH]3)cc2)cc1 ?
15.6

Recorded growth of Cc1cc(C(F)(F)F)ccc1C(=O)Nc1sc2c(c1C#N)CCC(=O)C2 , please.
-27.8

Return reported growth; argument: COc1ccc2nc(Cl)c(-c3cc(-c4ccccc4)nc(=O)[nH]3)cc2c1
32.2

// query growth value for entry O=c1oc2ccc(-c3ccc(F)cc3F)cc2c(=O)n1-c1ccc(Cl)c(C(F)(F)F)c1
9.55

Need growth of COc1ccc2[nH]c(=O)c(CSc3nccc(-c4ccc(Cl)cc4)n3)cc2c1 , thanks.
33.9

Consider the compound CN1CCCN(Cc2ccc(C(=O)Nc3cccc(Nc4ccc5cc(O)ccc5n4)c3)cc2C(F)(F)F)CC1 and give its measured growth.
27.8

Looking for the measured growth of COc1ccc(Nc2nc(N)n(Cc3cccc(Br)c3)n2)cc1 , can you help?
31.9

Data request, read-out growth, for Cc1ccc(C(=O)Nc2ccc(-n3c(C)nc4c(cnn4-c4ccccc4)c3=O)cc2)cc1
71.2

###

# Test system: SK-OV-3 ovarian
# Protocol Summary: NCI-60 one-dose screen, 48 h (100 = growth as untreated, 0 = no growth, -100 = all killed)
# Condition Description: 10 µM
Compounds without any hit were thinned out: in the full panel of roughly 83,000, 20% have a hit.
hey, just use MET if measured growth is less than 50%, otherwise NOT MET

* O=C1Nc2cc(Cl)ccc2/C1=C/c1cccc(OCc2ccc(Br)cc2F)c1 | MET
* CN1CCN(c2ccc(Nc3nc(NCCCNC(=O)C4CCCCC4)c4sccc4n3)cc2)CC1 | NOT MET
* CN1C(=O)/C(=C/c2ccc3ncsc3c2)NC1=NC12CC3CC(CC(O)(C3)C1)C2 | MET
* COc1cccc(-c2ccc(/C=N/NC(=O)c3[nH]c4ccc(Br)cc4c3-c3ccccc3)o2)c1 | MET
* COc1ccc2c(c1)N=C(C(=O)O)/C2=C/c1sc(Nc2ccc(O)cc2)nc1O | NOT MET
* COc1ccc2nc(Nc3cccc(NC(=O)c4ccc(CN5CCN(C)CC5)c(C(F)(F)F)c4)c3)ccc2c1 | MET
* Cc1ccc(/C=C(\C#N)n2nnc3c(F)cccc32)cc1 | MET
* COc1ccc(N(C)c2cc(C#N)nc3ccccc23)cc1N | MET

Consider O=C(Cn1cc(CSc2nnc3oc4ccccc4n23)nn1)Nc1cccc(Cl)c1 . Does its growth lie strictly below 50%?
NOT MET

# strict comparison: is reported growth < 50%? input = Cc1cccc(NC(=O)CSc2nc3ccc(F)cc3c(=O)n2-c2ccc(Cl)cc2)c1C
NOT MET

Is 50% strictly greater than the compound's reported growth? compound: COc1cc(C2CC(c3ccc(C)cc3)=Nc3c(N)nc(N)nc3N2)ccc1Oc1nc(Nc2ccc(F)cc2)nc(N(C)C)n1 (configuration not stated)
NOT MET

###

# Tested on: OVCAR-4 ovarian
# Protocol Summary: NCI-60 one-dose screen, 48 h (100 = growth as untreated, 0 = no growth, -100 = all killed)
# Condition Description: 10 µM
The panel holds about 83,000 compounds, 20% with a hit somewhere; the sample as a whole holds those more often.
Recorded growth for the following compounds
The answer is to be given in %; state only the numeric part.

* CCOP(=O)(OCC)O[C@H]1CC[C@]2(C)[C@H]3CC[C@@H]4[C@@H]([C@](C)(O)CCC=C(C)C)CC[C@@]4(C)[C@]3(C)CC[C@H]2C1(C)C | 38.8
* Nc1nc(Nc2ccccc2)nn1Cc1c(Cl)cccc1Cl | 39.7
* O=c1cc(-c2ccccc2)oc2cc(OCCCNCc3ccccc3)cc(O)c12 | -16.2
* O=C(Nc1ccc(I)cc1)Nc1nc2ccc([N+](=O)[O-])cc2s1 | -77.3
* C/C(=C\CSc1ccccc1C(=O)O)CCCC(C)CCCC(C)CCCC(C)C (centres undefined) | 57.3

For CCN1CCN(c2ccc(NC(=O)Nc3ccc4c(c3F)CCN4c3ccnc(C(=O)NC)c3)cc2C(F)(F)F)CC1 , what is its reported growth?
-89.6

Name the reported growth value associated with the compound O=C(/C=C/Nc1ccccc1)c1ccc2c(c1)Nc1ccccc1S2
49.2

Which growth value is on record for COc1cc2c(cc1OC)/C(=C\c1sc(Nc3ccc(O)cc3)nc1O)C(C(=O)O)=N2 ?
54

Which growth is listed for CN1CCN(c2ccc(Nc3nc(NCCCNC(=O)c4ccc(Cl)cc4)c4sccc4n3)cc2)CC1 ?
70.6

###

# Tested on: SR leukemia
# Protocol Summary: NCI-60 one-dose screen, 48 h
# Condition Description: 10 µM
About 83,000 compounds went through this panel and 20% of them were active in at least one assay; those are over-represented in the sample as a whole. The source made the active and inactive calls. The calls were made as follows: active = growth percent below 10; inactive = the rest.
Please answer using one outcome listed in yes (1) (active), no (0) (inactive)

Example entries and their recorded answers appear below.
* CN1C(=O)/C(=C/c2nccs2)SC1=S | no (0)
* O=C(Nc1cccc(C(F)(F)F)c1)c1cncc(C#Cc2cnc3cccnn23)c1 | yes (1)
* CC(C)C1=C[C@@]23CC[C@@H]4[C@](C)(CCC[C@]4(C)C(=O)NCc4ccccc4)[C@H]2C[C@@H]1[C@H]1C(=O)OC(=O)[C@H]13 | yes (1)
* CN(C)c1nc(NCCNS(=O)(=O)c2ccc(C(=O)/C=C/c3ccccc3)cc2)nc(Nc2ccc(F)cc2)n1 | yes (1)
* CCCCOc1ccc(Nc2nc3ccccc3nc2Nc2ccc(OCCCC)cc2)cc1 | no (0)

# outcome recorded in this test, key = CCCn1c(=O)c2[nH]c(-c3ccc(OCc4nc5ccc(C)cc5[nH]4)cc3)nc2n(CCC)c1=O
no (0)

Please indicate how the test categorized COc1cc(/C=C/C(=O)c2ccc(NC(=O)CSc3nnc(-c4c[nH]c5ccccc45)n3-c3ccccc3)cc2)cc(OC)c1OC .
no (0)

I'd appreciate the recorded outcome for O=S(=O)(Nc1ncccn1)c1ccc(-n2c(-c3ccc(Br)cc3)nc(-c3ccccc3)c2-c2ccccc2)cc1 from this test.
no (0)

Answer briefly: the call reported for O=c1[nH]c2ccccc2cc1CSc1ccc(Nc2nccc(-c3ccc4ccccc4c3)n2)cc1 in this assay.
no (0)
